Target: human PAH with the R408W mutation (Homo sapiens, UniProt P00439, R408W)
Construct: expressed in transfected cells
Sequence (P00439 whole entry R408W): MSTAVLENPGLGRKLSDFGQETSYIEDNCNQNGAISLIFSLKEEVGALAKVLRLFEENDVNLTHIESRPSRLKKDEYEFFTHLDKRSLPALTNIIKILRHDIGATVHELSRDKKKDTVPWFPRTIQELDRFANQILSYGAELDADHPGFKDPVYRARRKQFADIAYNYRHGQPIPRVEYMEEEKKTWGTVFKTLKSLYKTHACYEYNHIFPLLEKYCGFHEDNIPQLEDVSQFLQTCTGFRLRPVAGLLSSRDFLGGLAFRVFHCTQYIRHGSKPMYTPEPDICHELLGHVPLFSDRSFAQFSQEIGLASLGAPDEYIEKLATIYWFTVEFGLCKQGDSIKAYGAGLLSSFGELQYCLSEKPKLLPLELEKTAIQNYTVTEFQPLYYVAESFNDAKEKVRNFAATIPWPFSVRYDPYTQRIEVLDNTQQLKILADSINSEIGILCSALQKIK
Test: Cell Based Phenylalanine Flux Assay
Conditions: A375 cells expressing human R408W PAH; 24 hrs compound incubation; 13C-Tyrosine by LC-MS; average where tested multiple times; read-out: AC50
// AC50 lookup, one value per entry
Experimental readout: AC50

O=C(CCC1CCCC1)N1CCc2[nH]cnc2[C@H]1c1nc2ccccc2s1 [Example 1015]    500 to 1000 nM
O=C(c1oc(N2CCOCC2)nc1C(F)(F)F)N1CCc2[nH]cnc2[C@H]1c1nc2c(F)cccc2s1 [Example 1597]    < 500 nM
O=C(c1cn(-c2ccccn2)nc1Cl)N1CCc2[nH]cnc2[C@H]1c1nc2c(F)cccc2s1 [Example 1769]    500 to 1000 nM
CC(F)c1nc(C(F)F)c(C(=O)N2CCc3[nH]cnc3[C@H]2c2nc3c(F)cccc3s2)o1 (single isomer, unassigned) [Example 2073]    < 500 nM
O=C(c1oc(COC(F)(F)F)nc1C(F)F)N1CCc2[nH]cnc2[C@H]1c1nc2ccccc2s1 [Example 1831]    < 500 nM
CN(C)Cc1nc(C(F)F)c(C(=O)N2CCc3[nH]cnc3[C@@H]2c2nc3ccccc3s2)o1 [Example 1782]    500 to 1000 nM
Cc1ncoc1C(=O)N1CCc2[nH]cnc2[C@H]1c1nc2ccccc2[nH]1 [Example 993]    < 500 nM

* * *

// AC50 lookup, one value per entry
Target: human PAH with the R408W mutation (Homo sapiens, UniProt P00439, R408W)
Construct: expressed in transfected cells
Experiment: Cell Based Phenylalanine Flux Assay
Settings: A375 cells expressing human R408W PAH; 24 hrs compound incubation; 13C-Tyrosine by LC-MS; average where tested multiple times; read-out: AC50
Experimental readout: AC50

O=C(c1oc(N2CCOCC2)nc1C(F)(F)F)N1CCc2[nH]cnc2[C@H]1c1nc2ccccc2s1 [Example 2165]    < 500 nM
[2H][C@]1(c2nc3ccccc3s2)c2nc[nH]c2CCN1C(=O)c1cnc(-c2cnn(C)c2)s1 [Example 2158]    > 5000 nM
Cc1nc(-c2ccccn2)oc1C(=O)N1CCc2[nH]cnc2[C@H]1c1nc2c(F)cccc2s1 [Example 1445]    < 500 nM
CC1(C)CC=C(c2ncc(C(=O)N3CCc4[nH]cnc4[C@H]3c3nc4ccccc4s3)s2)CC1 [Example 1351]    500 to 1000 nM
CC(C)(C)CC(=O)N1CCc2[nH]cnc2[C@H]1c1nc2ccccc2[nH]1 [Example 930]    < 500 nM
CN(C)CCc1nc(C(F)(F)F)c(C(=O)N2CCc3[nH]cnc3[C@@H]2c2nc3c(F)cccc3s2)o1 [Example 1676]    < 500 nM
Cc1cccc2sc([C@@H]3c4nc[nH]c4CCN3C(=O)c3ocnc3C#N)nc12 [Example 2019]    < 500 nM
Cc1ccc2sc([C@@H]3c4nc[nH]c4CCN3C(=O)c3cnco3)nc2c1 [Example 2173]    500 to 1000 nM

* * *

// AC50 lookup, one value per entry
Target: human PAH with the R408W mutation (Homo sapiens, UniProt P00439, R408W)
Construct: expressed in transfected cells
Assay: Cell Based Phenylalanine Flux Assay
Conditions: A375 cells expressing human R408W PAH; 24 hrs compound incubation; 13C-Tyrosine by LC-MS; average where tested multiple times; read-out: AC50
Experimental readout: AC50

O=C(N1CCc2[nH]cnc2[C@H]1c1nc2c(F)cccc2s1)C(F)(F)C1(O)CCC1    500 to 1000 nM
N#Cc1nc(-c2ccccn2)oc1C(=O)N1CCc2[nH]cnc2[C@H]1c1nc2ccccc2s1    < 500 nM
Cn1nccc1C(=O)N1CCc2[nH]cnc2[C@@H]1c1nc2c(F)cccc2s1    > 5000 nM
Cc1nc(C2CC2)oc1C(=O)N1CCc2[nH]cnc2[C@H]1c1nc2ccccc2s1    < 500 nM
O=C(c1cnn2cc(F)ccc12)N1CCc2[nH]cnc2[C@@H]1c1nc2cc(F)ccc2s1    > 5000 nM
CC(O)c1nc(Cl)c(C(=O)N2CCc3[nH]cnc3[C@@H]2c2nc3c(F)cccc3s2)o1 (single isomer, unassigned) [Example 2081]    1000 to 5000 nM
N#Cc1ccn2ncc(C(=O)N3CCc4[nH]cnc4[C@@H]3c3nc4c(F)cccc4s3)c2c1    1000 to 5000 nM
COCCn1nccc1C(=O)N1CCc2[nH]cnc2[C@H]1c1nc2c(F)cccc2s1    < 500 nM
CC(F)c1nc(C(F)F)c(C(=O)N2CCc3[nH]cnc3[C@H]2c2nc3c(F)cccc3s2)o1 (single isomer, unassigned) [Example 2075]    < 500 nM
O=C(c1sc(C2CC2)nc1Cl)N1CCc2[nH]cnc2[C@H]1c1nc2c(F)cccc2s1    500 to 1000 nM
O=C(c1cnco1)N1CCc2[nH]cnc2[C@@H]1c1nc2ccccc2s1    > 5000 nM
O=C(CCC1CC1)N1CCc2[nH]cnc2[C@H]1c1nc2cc(F)ccc2s1    500 to 1000 nM
O=C(N1CCc2[nH]cnc2[C@@H]1c1nc2ccccc2s1)C(F)(F)C1CC1    > 5000 nM
CN1CCN(c2nc(Br)c(C(=O)N3CCc4[nH]cnc4[C@H]3c3nc4c(F)cccc4s3)o2)CC1    < 500 nM
O=C(c1conc1C(F)(F)F)N1CCc2[nH]cnc2[C@H]1c1nc2c(F)cccc2s1    < 500 nM
Cn1nc(Cl)cc1C(=O)N1CCc2[nH]cnc2[C@@H]1c1nc2c(F)cccc2s1    1000 to 5000 nM
Cn1ncnc1C(=O)N1CCc2[nH]cnc2[C@H]1c1nc2c(C(F)(F)F)cccc2s1    500 to 1000 nM
CC(C)(C)c1ncc(C(=O)N2CCc3[nH]cnc3[C@H]2c2nc3c(F)cccc3s2)s1    < 500 nM
Cc1nc(-c2ccccn2)oc1C(=O)N1CCc2[nH]cnc2[C@@H]1c1nc2c(F)cccc2s1    > 5000 nM
O=C(c1cnn(CC(F)(F)F)c1C(F)F)N1CCc2[nH]cnc2[C@@H]1c1nc2c(F)cccc2s1    500 to 1000 nM
CC[C@@H](O)c1nc(C(F)F)c(C(=O)N2CCc3[nH]cnc3[C@@H]2c2nc3c(F)cccc3s2)o1    500 to 1000 nM
O=C(c1oc(C2CC2)nc1C(F)F)N1CCc2[nH]cnc2[C@H]1c1nc2ccccc2s1    < 500 nM
CCc1nnc(CCC(=O)N2CCc3[nH]cnc3[C@@H]2c2nc3ccccc3s2)s1    > 5000 nM
O=C(c1cnn2c(Br)cccc12)N1CCc2[nH]cnc2[C@H]1c1nc2c(F)cccc2s1    < 500 nM
O=C(c1cnn(CC(F)F)c1Cl)N1CCc2[nH]cnc2[C@@H]1c1nc2c(F)cccc2s1    1000 to 5000 nM
CC(C)(O)c1nc(Br)c(C(=O)N2CCc3[nH]cnc3[C@H]2c2nc3c(F)cccc3s2)s1    < 500 nM
O=C(CC1CC(F)C1)N1CCc2[nH]cnc2[C@@H]1c1nc2ccccc2s1 (stereo partly shown)    1000 to 5000 nM
Nc1cnc(N2CCc3[nH]cnc3[C@H]2c2nc3ccccc3s2)nc1 (single isomer, unassigned)    500 to 1000 nM
Fc1ccc(-c2nnc(N3CCc4[nH]cnc4[C@@H]3c3nc4ccccc4s3)o2)cc1    500 to 1000 nM
CN1CCN(c2nc(C(F)(F)F)c(C(=O)N3CCc4[nH]cnc4[C@H]3c3nc4c(F)cccc4s3)o2)CC1    < 500 nM
Cc1cc(-c2nnc(C(=O)N3CCc4[nH]cnc4[C@@H]3c3nc4ccccc4s3)o2)nn1C    1000 to 5000 nM

Every entry's value here was drawn from patent US20250171438A1.
